Attribution: ChEMBL document CHEMBL1139007

For each record, write down the corresponding IC50.
- target-or-system: C-C chemokine receptor type 5 (Homo sapiens, UniProt P51681)
- Sequence (P51681 whole entry): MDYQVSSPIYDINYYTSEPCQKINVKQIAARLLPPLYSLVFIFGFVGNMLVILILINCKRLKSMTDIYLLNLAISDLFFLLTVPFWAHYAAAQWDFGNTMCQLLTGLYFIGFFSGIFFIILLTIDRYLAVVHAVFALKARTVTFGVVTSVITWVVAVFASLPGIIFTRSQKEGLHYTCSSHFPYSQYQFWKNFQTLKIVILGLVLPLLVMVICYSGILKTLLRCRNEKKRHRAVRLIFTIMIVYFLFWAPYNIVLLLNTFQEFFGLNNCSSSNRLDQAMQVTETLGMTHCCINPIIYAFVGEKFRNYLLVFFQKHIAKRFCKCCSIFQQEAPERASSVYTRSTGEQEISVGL
- assay-method-text: Displacement of [125I]RANTES from CCR5 expressed in CHO cells
Numbers only, in nM.

Worked cases, answers included:
molecule | IC50 (nM)
CCCCOCCOc1ccc(-c2ccc3c(c2)/C=C(/C(=O)Nc2ccc([S@@+]([O-])Cc4cncn4CCC)cc2)CCCN3Cc2cnn(C)c2)cc1 | 1.7
CCCCOCCOc1ccc(-c2ccc3c(c2)/C=C(/C(=O)Nc2ccc([S@@+]([O-])Cc4cncn4CCC)cc2)CCCCCN3CC(C)C)cc1 | 67
CCCCOCCOc1ccc(-c2ccc3c(c2)/C=C(/C(=O)Nc2ccc([S@@+]([O-])Cc4cncn4CCC)cc2)CCCN3CCC)cc1 | 1.7
CCCCOCCOc1ccc(-c2ccc3c(c2)/C=C(/C(=O)Nc2ccc([S@@+]([O-])Cc4cncn4CCC)cc2)CCCCN3CC(C)C)cc1 | 6.8

Tested system C-C chemokine receptor type 5 (Homo sapiens, UniProt P51681); IC50 recorded for CCCCOCCOc1ccc(-c2ccc3c(c2)C=C(C(=O)Nc2ccc([S+]([O-])Cc4cncn4CCC)cc2)CCN3CC(C)C)cc1 (stereo not given) was 1.9
